Biological target: PI 4-kinase beta (Homo sapiens, UniProt Q9UBF8)
Assay: Kinase Glo Luminescent Kinase Assay (Kglo), assay D
Format: biochemical
Details: read-out: Assay D PI4Kβ IC50
measured.attribute: IC50 (µM)

Here are 3 compounds together with their reported answers.
1) Cc1ccc(S(=O)(=O)NCC2(C)COC2)cc1-c1cnc(N)c(-n2cncn2)n1 :: 5.2
2) Cc1ccc(S(=O)(=O)N2CC(C)(O)C2)cc1-c1cnc(N)c(-n2cncn2)n1 :: 6.9
3) Cc1ccc(S(=O)(=O)N[C@@H]2CCOC2)cc1-c1cnc(N)c(-n2cncn2)n1 :: 5.3

(P) Cc1ccc(S(=O)(=O)NCCC(C)(C)O)cc1-c1cnc(N)c(-c2cnn(Cc3ccncc3)c2)n1
(Q) Cc1ncc(-c2nc(-c3cc(S(=O)(=O)NCC(F)(F)F)ccc3C)cnc2N)s1
(R) Cc1ccc(S(=O)(=O)NCC2(CO)CCCCC2)cc1-c1cnc(N)c(-n2cncn2)n1
Challenge: Ranking field: IC50; order: falling. Order the labels as requested and give them as your answer.
Response given: P, R, Q

----------
Target: PI 3-kinase delta (Homo sapiens)
Sequence (O00329 whole entry): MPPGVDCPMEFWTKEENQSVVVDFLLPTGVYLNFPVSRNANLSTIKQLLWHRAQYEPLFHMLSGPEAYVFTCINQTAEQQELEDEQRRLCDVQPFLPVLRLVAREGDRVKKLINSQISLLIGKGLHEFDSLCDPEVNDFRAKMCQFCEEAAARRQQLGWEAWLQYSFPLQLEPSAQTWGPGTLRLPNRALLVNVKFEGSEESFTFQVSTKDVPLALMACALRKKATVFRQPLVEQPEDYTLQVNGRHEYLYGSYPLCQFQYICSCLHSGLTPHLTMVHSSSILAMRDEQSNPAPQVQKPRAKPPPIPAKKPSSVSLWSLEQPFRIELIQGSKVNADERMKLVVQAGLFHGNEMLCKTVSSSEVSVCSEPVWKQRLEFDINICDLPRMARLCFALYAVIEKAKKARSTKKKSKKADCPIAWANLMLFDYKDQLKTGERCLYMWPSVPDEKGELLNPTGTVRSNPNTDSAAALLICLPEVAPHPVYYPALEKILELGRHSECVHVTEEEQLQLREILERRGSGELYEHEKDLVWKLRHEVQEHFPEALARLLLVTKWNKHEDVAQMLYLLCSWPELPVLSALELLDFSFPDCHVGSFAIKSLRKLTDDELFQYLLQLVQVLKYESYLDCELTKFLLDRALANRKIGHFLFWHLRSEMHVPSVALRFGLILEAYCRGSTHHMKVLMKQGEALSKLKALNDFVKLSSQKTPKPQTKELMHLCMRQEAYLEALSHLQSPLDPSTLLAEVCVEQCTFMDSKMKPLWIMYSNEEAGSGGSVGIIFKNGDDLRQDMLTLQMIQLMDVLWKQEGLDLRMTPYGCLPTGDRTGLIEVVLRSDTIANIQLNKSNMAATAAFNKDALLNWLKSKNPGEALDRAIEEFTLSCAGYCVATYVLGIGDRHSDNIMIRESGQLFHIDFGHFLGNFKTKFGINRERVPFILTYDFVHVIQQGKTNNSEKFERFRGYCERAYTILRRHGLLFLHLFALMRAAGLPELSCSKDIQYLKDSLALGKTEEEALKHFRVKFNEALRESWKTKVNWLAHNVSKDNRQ
Sequence (P27986 461-568 partner): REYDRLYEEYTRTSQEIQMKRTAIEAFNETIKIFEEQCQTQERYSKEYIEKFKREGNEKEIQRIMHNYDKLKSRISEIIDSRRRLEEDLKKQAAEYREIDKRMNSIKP
Test: TR-FRET Adapta assay, assay F
Settings: read-out: Assay F PI3Kδ IC50
pIC50: −log10 of the molar value.
measured.attribute: pIC50

Here are 4 compounds together with their reported answers.
1) Cc1ccc(S(=O)(=O)NCCCF)cc1-c1cnc(N)c(-n2cncn2)n1 :: 6.19
2) Cc1ccc(S(=O)(=O)NOCC(C)(C)O)cc1-c1cnc(N)c(-c2cn(C)nc2C)n1 :: 6.89
3) Cc1ccc(S(=O)(=O)NC[C@H]2CCCO2)cc1-c1cnc(N)c(-n2cncn2)n1 :: 6.05
4) Cc1ccc(S(=O)(=O)NC2CC2)cc1-c1cnc(N)c(-n2cncn2)n1 :: 5.85

(I) Cc1cc(-c2nc(-c3cc(S(=O)(=O)NC[C@H](C)O)ccc3C)cnc2N)ccn1
(II) Cc1ncc(S(=O)(=O)NCC(C)(C)O)cc1-c1cnc(N)c(-n2cncn2)n1
(III) Cc1ccc(S(=O)(=O)NCC(C)(C)O)cc1-c1cnc(N)c(-c2noc(C3CC3)n2)n1
Challenge: rank_up(items): orders items by reported pIC50 in ascending numerical order. Order the labels as requested and give them as your answer.
Response given: II, III, I

----------
Molecular target: PI 3-kinase beta (Homo sapiens, UniProt P42338)
Sequence (P42338 whole entry, one chain of several): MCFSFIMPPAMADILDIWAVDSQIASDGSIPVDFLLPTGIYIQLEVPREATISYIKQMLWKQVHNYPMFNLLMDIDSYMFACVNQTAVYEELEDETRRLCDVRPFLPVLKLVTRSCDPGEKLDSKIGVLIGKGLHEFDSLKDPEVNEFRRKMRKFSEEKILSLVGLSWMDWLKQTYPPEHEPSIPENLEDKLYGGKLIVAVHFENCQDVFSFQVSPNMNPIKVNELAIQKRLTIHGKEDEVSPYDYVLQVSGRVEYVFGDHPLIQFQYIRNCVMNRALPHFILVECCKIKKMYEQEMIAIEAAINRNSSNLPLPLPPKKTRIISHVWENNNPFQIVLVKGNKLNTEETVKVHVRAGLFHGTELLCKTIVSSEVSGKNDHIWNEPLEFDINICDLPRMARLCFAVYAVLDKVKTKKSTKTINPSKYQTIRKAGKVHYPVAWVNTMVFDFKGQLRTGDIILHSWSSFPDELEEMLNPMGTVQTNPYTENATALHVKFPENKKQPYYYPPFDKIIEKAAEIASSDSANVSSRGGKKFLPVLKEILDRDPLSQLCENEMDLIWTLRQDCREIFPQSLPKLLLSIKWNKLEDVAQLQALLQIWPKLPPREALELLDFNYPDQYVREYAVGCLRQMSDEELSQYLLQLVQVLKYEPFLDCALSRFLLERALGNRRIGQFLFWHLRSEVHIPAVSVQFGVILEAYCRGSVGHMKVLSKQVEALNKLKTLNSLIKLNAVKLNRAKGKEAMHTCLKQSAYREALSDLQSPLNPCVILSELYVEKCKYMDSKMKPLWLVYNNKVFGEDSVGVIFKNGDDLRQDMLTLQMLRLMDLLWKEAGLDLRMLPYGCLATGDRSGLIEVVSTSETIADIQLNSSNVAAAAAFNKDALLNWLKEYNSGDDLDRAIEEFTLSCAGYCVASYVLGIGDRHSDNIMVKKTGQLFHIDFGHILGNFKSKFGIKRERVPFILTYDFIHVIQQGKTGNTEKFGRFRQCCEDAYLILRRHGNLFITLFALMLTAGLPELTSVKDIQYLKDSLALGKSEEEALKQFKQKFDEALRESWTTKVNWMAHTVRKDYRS
Assay: Kinase Glo Luminescent Kinase Assay (Kglo), assay B
Type: biochemical
Conditions: read-out: Assay B PI3Kβ IC50
Where a name gives a salt, the structure may show the parent alone.
measured.attribute: IC50 (nM)

Here are 3 molecules together with their reported answers.
1) CCN1CCC[C@@H]1CNS(=O)(=O)c1ccc(C)c(-c2cnc(N)c(-c3cnc(C)s3)n2)c1 :: 250
2) Cc1ccc(S(=O)(=O)NC[C@H]2CCNC2)cc1-c1cnc(N)c(-n2cncn2)n1 [Example 127.58, trifluoroacetic acid salt] :: 1300
3) Cc1ccc(S(=O)(=O)NCCC(C)(C)O)cc1-c1cnc(N)c(-c2cnn(CC(C)C)c2)n1 :: 3220

(1) Cc1ccc(S(=O)(=O)NCCC(C)(C)O)cc1-c1cnc(N)c(-c2ccnn2C)n1
(2) Cc1ccc(S(=O)(=O)N[C@H]2CC[C@@H](O)CC2)cc1-c1cnc(N)c(-c2cnn(C)c2)n1
Challenge: Please choose the item with the lower IC50 value from this pair: 1 and 2 Pick one; state its label.
Response given: 2

----------
Biological target: PI 3-kinase alpha (Homo sapiens, UniProt P42336)
Sequence (P42336 whole entry): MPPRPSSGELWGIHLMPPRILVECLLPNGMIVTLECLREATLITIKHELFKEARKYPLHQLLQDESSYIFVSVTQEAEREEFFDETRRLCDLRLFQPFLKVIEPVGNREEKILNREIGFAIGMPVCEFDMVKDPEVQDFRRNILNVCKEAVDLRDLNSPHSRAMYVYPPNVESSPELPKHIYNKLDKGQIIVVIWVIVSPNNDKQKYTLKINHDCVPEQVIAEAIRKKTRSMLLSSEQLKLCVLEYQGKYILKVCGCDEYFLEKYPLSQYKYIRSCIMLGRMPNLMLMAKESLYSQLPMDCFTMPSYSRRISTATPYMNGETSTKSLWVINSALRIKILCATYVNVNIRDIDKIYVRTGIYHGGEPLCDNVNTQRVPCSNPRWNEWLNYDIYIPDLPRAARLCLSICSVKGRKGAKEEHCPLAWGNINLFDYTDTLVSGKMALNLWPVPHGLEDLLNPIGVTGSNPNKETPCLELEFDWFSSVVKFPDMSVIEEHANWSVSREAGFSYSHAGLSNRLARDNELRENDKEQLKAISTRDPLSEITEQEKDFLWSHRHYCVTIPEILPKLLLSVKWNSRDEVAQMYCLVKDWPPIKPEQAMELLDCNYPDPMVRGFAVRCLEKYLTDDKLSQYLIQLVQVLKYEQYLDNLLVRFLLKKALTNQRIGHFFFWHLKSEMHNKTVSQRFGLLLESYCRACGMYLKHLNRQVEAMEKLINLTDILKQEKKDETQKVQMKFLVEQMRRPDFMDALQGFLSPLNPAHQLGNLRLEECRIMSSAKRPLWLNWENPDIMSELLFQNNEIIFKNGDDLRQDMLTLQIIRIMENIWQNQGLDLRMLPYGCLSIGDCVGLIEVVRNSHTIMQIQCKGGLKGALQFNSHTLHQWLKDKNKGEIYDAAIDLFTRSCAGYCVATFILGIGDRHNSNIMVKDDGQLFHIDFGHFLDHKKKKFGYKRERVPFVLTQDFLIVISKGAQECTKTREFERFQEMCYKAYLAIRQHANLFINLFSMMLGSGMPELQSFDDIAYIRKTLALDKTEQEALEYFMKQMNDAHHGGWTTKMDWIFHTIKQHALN
Assay: Kinase Glo Luminescent Kinase Assay (Kglo), assay A
Format: biochemical
Details: read-out: Assay A PI3Kα IC50
pIC50: −log10 of the molar value.
measured.attribute: pIC50

1. Cc1ccc(S(=O)(=O)N[C@H]2CC[C@@H](O)CC2)cc1-c1cnc(N)c(-c2cnn(C)c2)n1 [Example 75] :: 6.33

(I) CCN1CCC[C@@H]1CNS(=O)(=O)c1ccc(C)c(-c2cnc(N)c(-c3ccnc(C)c3)n2)c1 [Example 129.25]
(II) Cc1cc(-c2nc(-c3cc(S(=O)(=O)NCC4(O)CCCCC4)ccc3C)cnc2N)ccn1 [Example 129.4]
(III) Cc1cc(-c2nc(-c3cc(S(=O)(=O)NC4CCN(C)CC4)ccc3C)cnc2N)ccn1 [Example 129.22]
Challenge: rank_up(items): orders items by reported pIC50 in ascending numerical order. Order the labels as requested and give them as your answer.
Response given: III, I, II
(III: 5.82, I: 6.27, II: 6.72)

----------
Target: PI 3-kinase gamma (Homo sapiens, UniProt P48736)
Sequence (P48736 whole entry): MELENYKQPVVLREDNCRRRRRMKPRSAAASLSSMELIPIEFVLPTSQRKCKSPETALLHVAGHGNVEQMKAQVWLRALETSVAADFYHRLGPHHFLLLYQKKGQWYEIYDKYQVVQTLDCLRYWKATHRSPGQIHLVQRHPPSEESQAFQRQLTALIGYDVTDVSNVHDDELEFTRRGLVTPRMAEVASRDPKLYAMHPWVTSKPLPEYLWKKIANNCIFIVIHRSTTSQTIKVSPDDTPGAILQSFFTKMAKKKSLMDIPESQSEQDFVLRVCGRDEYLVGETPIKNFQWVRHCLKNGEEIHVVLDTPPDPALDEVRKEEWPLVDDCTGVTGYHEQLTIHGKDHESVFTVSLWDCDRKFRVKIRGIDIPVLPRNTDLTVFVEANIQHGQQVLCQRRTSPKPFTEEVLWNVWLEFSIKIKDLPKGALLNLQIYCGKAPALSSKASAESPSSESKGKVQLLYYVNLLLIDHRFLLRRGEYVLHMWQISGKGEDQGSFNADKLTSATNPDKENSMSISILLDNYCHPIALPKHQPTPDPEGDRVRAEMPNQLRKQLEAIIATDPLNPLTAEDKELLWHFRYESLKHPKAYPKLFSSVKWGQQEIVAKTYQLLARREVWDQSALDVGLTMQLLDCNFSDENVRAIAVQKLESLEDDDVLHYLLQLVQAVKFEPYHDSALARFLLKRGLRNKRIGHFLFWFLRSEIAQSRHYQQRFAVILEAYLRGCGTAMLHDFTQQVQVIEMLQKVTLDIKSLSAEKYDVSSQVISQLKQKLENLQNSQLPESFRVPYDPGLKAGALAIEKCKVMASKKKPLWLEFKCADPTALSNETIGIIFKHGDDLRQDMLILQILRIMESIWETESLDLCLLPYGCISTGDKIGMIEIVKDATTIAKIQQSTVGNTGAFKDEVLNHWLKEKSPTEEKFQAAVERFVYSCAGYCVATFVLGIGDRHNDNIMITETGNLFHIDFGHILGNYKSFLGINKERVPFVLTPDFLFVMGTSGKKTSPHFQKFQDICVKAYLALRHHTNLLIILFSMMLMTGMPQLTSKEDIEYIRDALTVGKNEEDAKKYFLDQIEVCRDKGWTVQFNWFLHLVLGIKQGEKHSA
Assay: Cellular U937 AKT assay K1 (MSD)
Assay type: cell-based
Conditions: U937 cells, K1 format; read-out: Assay K1 PI3Kγ IC50
pIC50: −log10 of the molar value.
measured.attribute: pIC50

1) Cc1ccc(S(=O)(=O)N2CCC(F)(F)C2)cc1-c1cnc(N)c(-n2cncn2)n1 :: 6.43
2) Cc1nnc(-c2nc(-c3cc(S(=O)(=O)N[C@H]4CC[C@H](O)CC4)ccc3C)cnc2N)o1 :: 6.30

(P) Cc1ccc(S(=O)(=O)NCC2COC2)cc1-c1cnc(N)c(-n2cncn2)n1
(Q) Cc1ccc(S(=O)(=O)NCCC(C)(C)O)cc1-c1cnc(N)c(-c2cccs2)n1
Challenge: I'd appreciate it if you could identify which of P and Q has the greater pIC50. Pick one; state its label.
Response given: Q
(Q: 7.07, P: 6.31)

----------
Assay: Microsomal clearance assay (M)
Conditions: intrinsic clearance in rat liver microsomes
measured.attribute: Assay M RLM CI(int) (µL/min/mg)

Here are 2 compounds together with their reported answers.
1. Cc1ncc(-c2nc(-c3cc(S(=O)(=O)NC[C@H]4C[C@@H](O)C4)ccc3C)cnc2N)s1 [Example 20a] :: 55
2. Cc1ccc(S(=O)(=O)NCC[C@@H](O)C(F)(F)F)cc1-c1cnc(N)c(-c2cn(C)nc2C)n1 (single isomer, unassigned) [Example 52a] :: 60

(1) COc1ccncc1-c1nc(-c2cc(S(=O)(=O)NCCC(C)(C)O)ccc2C)cnc1N
(2) Cc1ccc(S(=O)(=O)NCC(C)(C)O)cc1-c1cnc(N)c(-c2cc(C3CC3)no2)n1
Challenge: I'd appreciate it if you could identify which of 1 and 2 has the greater Assay M RLM CI(int). Pick one; state its label.
Response given: 1
(1: 101 µL/min/mg, 2: 63 µL/min/mg)

----------
Biological target: UniProt:P42336
Assay: Kinase Glo Luminescent Kinase Assay (Kglo), assay A
Format: biochemical
Details: read-out: Assay A PI3Kα IC50
pIC50: −log10 of the molar value.
measured.attribute: pIC50

1) CC[C@H](CO)NS(=O)(=O)c1ccc(C)c(-c2cnc(N)c(-c3ccnc(C)c3)n2)c1 :: 6.05
2) Cc1ccc(S(=O)(=O)NCC(C)(C)O)cc1-c1cnc(N)c(-c2cnn(CCN(C)C)c2)n1 :: 6.00
3) Cc1ccc(S(=O)(=O)NCCC(C)(C)O)cc1-c1cnc(N)c(-c2ccoc2)n1 :: 5.78
4) Cc1ccc(S(=O)(=O)NCCC(C)(C)O)cc1-c1cnc(N)c(-c2cc(C3CC3)no2)n1 :: 6.62
5) Cc1cc(-c2nc(-c3cc(S(=O)(=O)NCC4(O)CCC4)ccc3C)cnc2N)ccn1 :: 6.57

(1) Cc1ccc(S(=O)(=O)NCC2(O)CCCC2)cc1-c1cnc(N)c(-n2cncn2)n1
(2) Cc1cc(-c2nc(-c3cc(S(=O)(=O)N4CC5(CNC5)C4)ccc3C)cnc2N)ccn1
(3) Cc1ccc(S(=O)(=O)NCCC(C)(C)O)cc1-c1cnc(N)c(-c2cnn(Cc3cccnc3)c2)n1
Challenge: rank_up(items): orders items by reported pIC50 in ascending numerical order. Order the labels as requested and give them as your answer.
Response given: 2, 1, 3
(2: 5.89, 1: 6.48, 3: 7.05)

----------
Target: PI 3-kinase delta (Homo sapiens)
Experiment: TR-FRET Adapta assay, assay F
Conditions: read-out: Assay F PI3Kδ IC50
pIC50: −log10 of the molar value.
measured.attribute: pIC50

(1) CCn1cc(-c2nc(-c3cc(S(=O)(=O)NCCC(C)(C)O)ccc3C)cnc2N)cn1 [Example 119.34]
(2) Cc1cc(-c2nc(-c3cc(S(=O)(=O)NCC4CCOC4)ccc3C)cnc2N)ccn1 (stereo not drawn) [Example 129.18]
Challenge: I'd appreciate it if you could identify which of 1 and 2 has the greater pIC50. Pick one; state its label.
Response given: 1
(1: 6.66, 2: 6.40)

----------
Target: PI 4-kinase beta (Homo sapiens, UniProt Q9UBF8)
Assay: Kinase Glo Luminescent Kinase Assay (Kglo), assay D
Type: biochemical
Details: read-out: Assay D PI4Kβ IC50
pIC50: −log10 of the molar value.
Below, each entry is listed alongside its reported pIC50.

Here are 3 compounds together with their reported answers.
1. Cc1ccc(S(=O)(=O)NCC(C)(C)O)cc1-c1cnc(N)c(-c2noc(C3CC3)n2)n1 :: < 5.02
2. Cc1ncc(-c2nc(-c3cc(S(=O)(=O)NCC(C)(C)O)ccc3C)cnc2N)s1 :: 5.71
3. Cc1ccc(S(=O)(=O)NCC(C)(C)O)cc1-c1cnc(N)c(-c2nc(C3CC3)no2)n1 :: < 5.02

Consider now this further compound.
Challenge: Entry Cc1cc(-c2nc(-c3cc(S(=O)(=O)NC[C@H]4CCC[C@@H](CN)C4)ccc3C)cnc2N)ccn1 : reported pIC50 = ?
Response given: < 5.04
